target: human α5β3γ2 receptors (α5-GABAA receptor) (Homo sapiens (Human), UniProt P18507+P31644)
protocol.details: 3H-flunitrazepam competition binding, human α5β3γ2 GABAA receptor
experimental.context: HEK293 cell membranes, 1 nM 3H-flunitrazepam; read-out: α5-GABAAR Ki
assay.metric: Ki (nM)

1: Cc1nnn(-c2ccc(C(F)F)cc2)c1COc1nnc(N2CCNC(=O)C2)c2ncccc12 [Example 137]
2: Cc1nnn(-c2ccc(F)cc2)c1COc1ccc(N2CCN3CCOC[C@@H]3C2)nn1 [Example 126]
3: Cc1nnn(-c2ccc(C(F)F)cc2)c1COc1ccc(N2CCN(CCCc3ccc(C#N)cc3)C(=O)C2)nn1 [Example 145]
4: Cc1ccc(-n2nnc(C)c2COc2ccc(N3CCN4CCNC(=O)[C@@H]4C3)nn2)cc1 [Example 129]
5: Cc1nnn(-c2ccc(C(F)F)cc2)c1COc1ccc(N2CCNC(=O)C2)nn1 [Example 2]
input: List from greatest to least Ki. Answer with the labels in sequence, matching the requested order.
output: 2, 4, 5, 3, 1

###

target: human α5β3γ2 receptors (α5-GABAA receptor) (Homo sapiens (Human), UniProt P18507+P31644)
protocol.details: 3H-flunitrazepam competition binding, human α5β3γ2 GABAA receptor
experimental.context: HEK293 cell membranes, 1 nM 3H-flunitrazepam; read-out: α5-GABAAR Ki
Procedure: The affinity of the compound to each subtype of GABAA receptor was determined by competing for the binding of ^3H-flunitrazepam to HEK293 cells stably expressing human α1β3γ2, α2β3γ2, α3β3γ2, and α5β3γ2 receptors. The cells were suspended in 50 mM Tris-HCl buffer (pH=7.4), homogenized 10 times on ice with a homogenizer for 20 seconds, and centrifuged at 1000 g for 10 minutes at 4° C. […] Protein was measured (BCA method, Pierce), and 1 mL aliquots were prepared and stored at −80° C. […]
assay.metric: Ki (nM)

Consider the following illustrative entries.
{"columns": ["molecule", "assay.metric", "reported.measurement"],
 "data": [
  ["Cc1nnn(-c2ccc(C(F)F)cc2)c1COc1ccc(N2CC(C(=O)NC3CCOCC3)C2)nn1", "Ki", 6.43],
  ["O=C(O)c1ccc(CCCN2CCN(c3ccc(OCc4c(Cl)nnn4-c4ccc(C(F)F)cc4)nn3)CC2=O)cc1", "Ki", 4.44]
]}

I: Cc1cc(N2CCNC(=O)C2)nnc1OCc1c(C)nnn1-c1ccc(C(F)F)cc1
II: O=C1CN(c2ccc(OCc3c(C(F)F)nnn3-c3ccc(C(F)F)cc3)nn2)CCN1
III: Cc1cc(-c2nnn(-c3ccc(C(F)F)cc3)c2COc2ccc(N3CCNC(=O)C3)nn2)no1
IV: Cc1nnn(-c2ccc(C(F)F)cc2)c1COc1ccc(N2CC[C@@H]3CCNC(=O)[C@@H]3C2)nn1 (relative stereo)
input: Please produce an ascending ranking of these molecules based on Ki. Answer with the labels in sequence, matching the requested order.
output: I, II, IV, III
(I: 0.56 nM, II: 0.96 nM, IV: 7.2 nM, III: 40.6 nM)

A: CCNC(=O)C1=CCCN(c2ccc(OCc3c(C)nnn3-c3ccc(C(F)F)cc3)nn2)C1
B: CC(=O)NC1CCN(c2ccc(OCc3c(C)nnn3-c3ccc(C(F)F)cc3)nn2)C1 (stereo not shown)
C: Cc1nnn(-c2ccc(C(F)F)cc2)c1COc1ccc(C2=CC(=O)NCC2)nn1
input: Please rank these molecules by Ki in descending order. Answer with the labels in sequence, matching the requested order.
output: B, A, C

1: Cc1nnn(-c2ccc(C(F)F)cc2)c1COc1cnc(N2CCN3CCNC(=O)[C@@H]3C2)cn1
2: Cc1nnn(-c2ccc(C(F)F)cc2)c1COc1ccc(N2CCN(C3CN(C(C)C)C3)C(=O)C2)nn1
3: Cc1nnn(-c2ccc(C(F)F)cc2)c1COc1ccc(N2CC(=O)NC(C)(C)C2)nn1
input: Please rank these molecules by Ki in descending order. Answer with the labels in sequence, matching the requested order.
output: 1, 2, 3
(1: 17.2 nM, 2: 1.8 nM, 3: 1 nM)

1: Cc1nnn(-c2ccc(C(F)F)cc2)c1COc1ccc(N2CCN3CC(c4cnn(C)c4)NC(=O)[C@@H]3C2)nn1 (single isomer, unassigned) [Example 211]
2: Cc1nnn(-c2ccc(C(F)F)cc2)c1COc1ccc(N2CC(C(=O)N3CCCC(O)C3)C2)nn1 (stereo not shown)
input: # argmax over Ki for candidates 1 and 2 Indicate your choice by writing its label.
output: 2
(2: 5.26 nM, 1: 2.02 nM)

Attribution: patent US20250136581A1
